test system: PfAP2-G AP2 domain (GST-tagged); assay: gcPBM binding intensity (ln(normalized median fluorescence intensity)); higher = stronger DNA binding
The full ranking holds about 25,000 sequences; the median of “ln(normalized median fluorescence intensity)” is about 10, and the highest 2% start at about 12. The sample as a whole holds a higher share of the highest values than the screen did.
Please respond with reported gcPBM binding intensity (ln) for every item in the list.
Numbers only.

Below, each entry is followed by its recorded gcPBM binding intensity (ln) result.
ATAAATAAAGGACACACACACACACTAGAAAAAAAA [CACACA_site5450]; 11.2
AAAAAATATAAAACGAGTACATATATAATAAGCAAA [XGTACX_site1360]; 11.4
TAATAAATCAAATGCACACACACAAAAAAAAAAAAA [CACACA_site161]; 10
GGATAAAATGCTACGAGTACATAAGCATTTTTCCCT [XGTACX_site7796]; 11.7

Next:
Measured gcPBM binding intensity (ln) of TACACAGACGGACACACACACACACTAGAAAAAAAA [CACACA_site4435] : 11.7

Data provenance is the supplement of paper PMC11417369.
